Hi there, I'd appreciate the recorded phosphorylation enrichment for every entry that follows.
Biological target: FGFR1 (UniProt P11362)
Sequence (P11362 whole entry, looked up): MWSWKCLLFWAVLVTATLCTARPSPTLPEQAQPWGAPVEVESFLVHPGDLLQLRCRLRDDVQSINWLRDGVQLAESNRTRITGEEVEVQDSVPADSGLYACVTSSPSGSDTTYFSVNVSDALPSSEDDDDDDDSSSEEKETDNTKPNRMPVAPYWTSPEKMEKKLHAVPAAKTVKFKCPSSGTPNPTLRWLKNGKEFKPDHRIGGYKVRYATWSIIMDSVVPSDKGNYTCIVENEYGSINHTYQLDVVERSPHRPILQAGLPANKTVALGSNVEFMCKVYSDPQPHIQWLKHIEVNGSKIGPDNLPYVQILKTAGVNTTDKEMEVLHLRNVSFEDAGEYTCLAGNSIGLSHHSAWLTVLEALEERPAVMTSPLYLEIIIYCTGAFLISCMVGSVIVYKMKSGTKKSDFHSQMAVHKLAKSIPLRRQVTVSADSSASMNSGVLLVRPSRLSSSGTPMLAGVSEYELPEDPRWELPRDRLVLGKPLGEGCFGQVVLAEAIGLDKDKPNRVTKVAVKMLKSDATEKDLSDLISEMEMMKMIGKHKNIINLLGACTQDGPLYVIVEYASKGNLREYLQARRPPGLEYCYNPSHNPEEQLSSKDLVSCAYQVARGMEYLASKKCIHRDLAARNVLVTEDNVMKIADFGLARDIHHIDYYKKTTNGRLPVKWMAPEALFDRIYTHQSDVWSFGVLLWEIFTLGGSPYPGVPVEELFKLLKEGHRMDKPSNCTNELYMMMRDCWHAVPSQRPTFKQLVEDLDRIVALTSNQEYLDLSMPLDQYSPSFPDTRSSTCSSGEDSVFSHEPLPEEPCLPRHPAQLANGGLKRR
Test: phosphorylation enrichment, bacterial display (enrichment ratio); higher = better substrate or ligand; peptides without Tyr show the background;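 note: 11-residue human phosphosite peptides and single-mutation variants displayed on the E. coli surface, counted by deep sequencing, each peptide's frequency after selection divided by its frequency in the unselected input library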;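 note: frequency after pTyr selection over input frequency; kinase dosed for 20-30% of maximal phosphorylation in three min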
Give bare numbers.

Before answering, review these 4 worked examples.
[
  {
    "primary.sequence": "PLDGEYSTLQI [TP53_Y327_F328S]",
    "phosphorylation enrichment": 1.77
  },
  {
    "primary.sequence": "TDKLFYIYTPG [SLC27A4_Y243_S247P]",
    "phosphorylation enrichment": 0.728
  },
  {
    "primary.sequence": "PDSVDYPKKGF [CTSK_Y121_R122P_YF]",
    "phosphorylation enrichment": 1.12
  },
  {
    "primary.sequence": "DPADRYLTEQF [CDKL5_Y286_C291Y_YF]",
    "phosphorylation enrichment": 0.591
  }
]

// input: 5 sequences below; output: phosphorylation enrichment for each
1. TKFRNYLIPKG [CYP2C8_Y379]
2. ERLWVYGMSSS [F8_Y1728_D1727V]
3. SSLEDYVRETN [GIMAP6_Y176_G171S]
4. SGETKYNPTEA [NBEAL2_Y2748_E2747K]
5. TKEPKYGGAGS [KIAA1210_Y1615_E1616G]

stdout:
0.381
0.529
0.67
0.502
0.405

* * *

Molecular target: FGFR3 (UniProt P22607)
Sequence (P22607 whole entry, looked up): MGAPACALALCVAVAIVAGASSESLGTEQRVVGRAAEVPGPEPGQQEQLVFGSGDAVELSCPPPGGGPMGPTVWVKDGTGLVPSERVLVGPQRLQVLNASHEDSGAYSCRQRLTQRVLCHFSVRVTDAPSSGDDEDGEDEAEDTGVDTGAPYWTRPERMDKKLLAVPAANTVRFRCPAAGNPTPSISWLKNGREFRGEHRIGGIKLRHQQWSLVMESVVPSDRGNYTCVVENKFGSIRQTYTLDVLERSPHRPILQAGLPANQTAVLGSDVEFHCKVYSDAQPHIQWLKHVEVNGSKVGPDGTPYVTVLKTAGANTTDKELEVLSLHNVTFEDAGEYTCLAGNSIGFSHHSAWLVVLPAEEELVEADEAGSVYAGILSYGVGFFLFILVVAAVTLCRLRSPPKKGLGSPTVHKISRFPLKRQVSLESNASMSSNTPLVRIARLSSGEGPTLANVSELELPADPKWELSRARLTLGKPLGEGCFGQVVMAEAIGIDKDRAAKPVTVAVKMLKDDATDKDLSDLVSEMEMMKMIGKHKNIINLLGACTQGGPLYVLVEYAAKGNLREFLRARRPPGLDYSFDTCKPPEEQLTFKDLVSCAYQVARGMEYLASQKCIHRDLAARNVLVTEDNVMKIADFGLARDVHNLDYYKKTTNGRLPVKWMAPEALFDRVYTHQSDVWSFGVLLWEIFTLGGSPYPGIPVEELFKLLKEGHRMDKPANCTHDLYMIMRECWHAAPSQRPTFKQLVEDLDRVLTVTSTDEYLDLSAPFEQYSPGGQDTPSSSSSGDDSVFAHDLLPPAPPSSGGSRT
Assay: phosphorylation enrichment, bacterial display (enrichment ratio); higher = better substrate or ligand; peptides without Tyr show the background
Is phosphorylation enrichment at least 0.7? Then true (1). If not, false (0).

The examples below pair each entry with its known result.
[
  {
    "primary.sequence": "YETVKYINNER [ABCB7_Y345_F346I]",
    "group.label": "true (1)"
  },
  {
    "primary.sequence": "SFDLDYDSVQP [MYC_Y16_N11S_YF]",
    "group.label": "true (1)"
  }
]

stdin: Entry HFPDVYAWEQL [ALX3_Y181_R183W_YF] : is its phosphorylation enrichment no less than 0.7?
stdout: false (0)

stdin: Entry LRGVIYVILRK [PMP22_Y153_S149R] : is its phosphorylation enrichment no less than 0.7?
stdout: true (1)

* * *

Hi there, I'd appreciate the recorded phosphorylation enrichment for every entry that follows.
Test system: c-Src
Assay: phosphorylation enrichment, bacterial display (enrichment ratio); higher = better substrate or ligand; peptides without Tyr show the background
Give bare numbers.

Before answering, review these 5 worked examples.
[
  {
    "primary.sequence": "KRLFAYKMLMA [TMC2_Y209_Q205R_YF]",
    "system": "c-Src",
    "phosphorylation enrichment": 0.367
  },
  {
    "primary.sequence": "LLNAIYLSAKR [SERPING1_Y294_W299R]",
    "system": "c-Src",
    "phosphorylation enrichment": 1.09
  },
  {
    "primary.sequence": "VAMELYVFGGV [GAN_Y471]",
    "system": "c-Src",
    "phosphorylation enrichment": 1.13
  },
  {
    "primary.sequence": "KYVKMCDNHQL [MYO9A_Y203_Y203C]",
    "system": "c-Src",
    "phosphorylation enrichment": 0.429
  },
  {
    "primary.sequence": "AVRVFYRKCPH [EPHB2_Y194_R199H]",
    "system": "c-Src",
    "phosphorylation enrichment": 0.424
  }
]

// input: 3 sequences below; output: phosphorylation enrichment for each
1. PRAEWYRDDVL [MYOM2_Y317]
2. APTSGYQEFVH [IL4R_Y575]
3. KIDAKYKKKIK [WDR19_Y1230_E1235K]

stdout:
0.546
0.419
0.484

* * *

System: AncSZ
Experiment: phosphorylation enrichment, bacterial display (enrichment ratio); higher = better substrate or ligand; peptides without Tyr show the background
observable: phosphorylation enrichment
Answers are plain numbers.

[
  {
    "primary.sequence": "GFAIVYGTIIL [GPR179_Y460]",
    "system": "AncSZ",
    "phosphorylation enrichment": 1.19
  },
  {
    "primary.sequence": "RYVTRYIYNRE [HLA-DQB1_Y62]",
    "system": "AncSZ",
    "phosphorylation enrichment": 1.23
  },
  {
    "primary.sequence": "NGSKGYAFVHF [PABPC5_Y147_YF]",
    "system": "AncSZ",
    "phosphorylation enrichment": 0.879
  }
]

// input: 5 sequences below; output: phosphorylation enrichment for each
1. LRVGFYESDVM [A2M_Y708]
2. KFVKMCDNHQL [MYO9A_Y203_Y203C_YF]
3. NMHSTYAKLAA [SEC22B_Y193]
4. KKFVPYFDLFM [IPO5_Y530_E525K_YF]
5. IGMSSYVMLAS [GGCX_Y301_F299S]

stdout:
[2.97, 0.483, 0.382, 1.29, 1.34]

// input: 2 sequences below; output: phosphorylation enrichment for each
1. PDNKPYIFKVF [PIK3AP1_Y553_E551K]
2. LRGVIYVILRK [PMP22_Y153_S149R]

stdout:
1.37
2.21

// input: 6 sequences below; output: phosphorylation enrichment for each
1. GIADDYDKKKP [EIF1_Y54_L59P]
2. ASLLPYFPAIM [IPO4_Y518]
3. FAKTQYPDVYA [CRX_Y63]
4. DALDNYVVRGV [PCCA_Y473_I475V]
5. KGERGYPGTLG [COL4A1_Y348_P352L]
6. MNPPPYSQLLS [FGF23_Y154_F157L]

stdout:
1. 1.01
2. 0.782
3. 0.628
4. 0.751
5. 0.597
6. 0.692

// input: 3 sequences below; output: phosphorylation enrichment for each
1. VPEANYTSDEE [STK33_Y439_D436E]
2. PLQKTYNYNVL [SLC4A1_Y553]
3. ARKCKYFKKHE [NFIX_Y40_R38C]

stdout:
[1.42, 0.872, 0.619]

* * *

Biological target: EPHB2 (UniProt P29323)
Sequence (P29323 whole entry, looked up): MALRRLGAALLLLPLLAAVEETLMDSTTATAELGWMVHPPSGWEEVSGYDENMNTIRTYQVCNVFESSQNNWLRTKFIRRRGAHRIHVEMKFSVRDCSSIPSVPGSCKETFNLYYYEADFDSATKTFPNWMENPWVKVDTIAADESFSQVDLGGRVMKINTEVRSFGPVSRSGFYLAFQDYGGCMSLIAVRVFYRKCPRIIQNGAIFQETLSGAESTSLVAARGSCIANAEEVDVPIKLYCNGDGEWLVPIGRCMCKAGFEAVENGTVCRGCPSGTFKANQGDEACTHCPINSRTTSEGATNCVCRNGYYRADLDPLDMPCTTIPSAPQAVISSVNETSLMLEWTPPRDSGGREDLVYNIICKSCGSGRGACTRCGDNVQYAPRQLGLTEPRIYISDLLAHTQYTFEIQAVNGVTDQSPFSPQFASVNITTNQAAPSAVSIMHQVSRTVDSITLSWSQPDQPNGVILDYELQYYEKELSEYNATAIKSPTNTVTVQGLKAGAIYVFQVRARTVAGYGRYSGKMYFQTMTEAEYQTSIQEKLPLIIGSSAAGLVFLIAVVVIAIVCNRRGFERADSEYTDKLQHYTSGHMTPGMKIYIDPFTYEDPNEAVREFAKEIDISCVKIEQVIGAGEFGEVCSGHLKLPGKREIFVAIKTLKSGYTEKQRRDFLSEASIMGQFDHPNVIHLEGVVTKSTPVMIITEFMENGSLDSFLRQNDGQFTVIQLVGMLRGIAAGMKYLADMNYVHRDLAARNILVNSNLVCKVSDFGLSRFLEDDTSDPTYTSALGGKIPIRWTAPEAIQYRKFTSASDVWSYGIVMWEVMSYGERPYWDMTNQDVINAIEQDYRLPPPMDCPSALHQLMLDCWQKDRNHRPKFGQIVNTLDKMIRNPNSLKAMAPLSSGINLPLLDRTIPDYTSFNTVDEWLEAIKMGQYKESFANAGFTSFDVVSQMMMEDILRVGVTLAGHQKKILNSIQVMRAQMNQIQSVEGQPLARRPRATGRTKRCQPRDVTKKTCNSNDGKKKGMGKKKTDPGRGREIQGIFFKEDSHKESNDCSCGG
Test: phosphorylation enrichment, bacterial display (enrichment ratio); higher = better substrate or ligand; peptides without Tyr show the background
observable: phosphorylation enrichment

[
  {
    "primary.sequence": "ICANKYMVKSC [RPL10_Y75]",
    "result": 0.445
  },
  {
    "primary.sequence": "RLVTRYIFNRE [HLA-DQB1_Y62_Y58L_YF]",
    "result": 0.415
  },
  {
    "primary.sequence": "SGDDGYAKDAK [TENM4_Y1530]",
    "result": 0.623
  },
  {
    "primary.sequence": "HSVVQYVGGVM [FGGY_Y136_L134V]",
    "result": 0.572
  },
  {
    "primary.sequence": "RFLRGYRQYAY [HLA-A_Y137_D140Y]",
    "result": 0.752
  },
  {
    "primary.sequence": "NSRFTYKLEVK [USH2A_Y3747_YF]",
    "result": 0.545
  }
]

// input: 6 sequences below; output: phosphorylation enrichment for each
1. NPSYNYEIVNQ [DYNC1H1_Y3379_R3384Q]
2. PYTDPYYDYEI [ZC3H18_Y371_A368T]
3. MDDKEYYSVHN [MET_Y1234_Y1230D]
4. SIKDKYVTVLY [KCNH2_Y611_A614V]
5. DFFDLYGGEKL [PTPN11_Y66_F71L_YF]
6. QDIMAYRSREV [BCL6_Y157_G159S]

stdout:
4.17
3.3
0.62
0.506
0.901
0.343

The reported phosphorylation enrichment of the sequence LARDMCDKEFF [MET_Y1230_Y1230C_YF] was 0.816

* * *

Biological target: EPHB2 (UniProt P29323)
Assay: phosphorylation enrichment, bacterial display (enrichment ratio); higher = better substrate or ligand; peptides without Tyr show the background
Is phosphorylation enrichment at least 0.7? Then met. If not, not met.

The examples below pair each entry with its known result.
[
  {
    "primary.sequence": "MRALTYCDLHK [KCNH2_Y827_V822M]",
    "group.label": "not met"
  },
  {
    "primary.sequence": "SMEGLYSSAQD [CLIC5_Y111_T114A]",
    "group.label": "met"
  }
]

stdin: Entry PIAPVYAASMV [ACAT1_Y331] : is its phosphorylation enrichment no less than 0.7?
stdout: met

stdin: Entry GTQGSYLLSRK [UGT3A1_Y123_C121G] : is its phosphorylation enrichment no less than 0.7?
stdout: not met

stdin: Entry DPADRYLTEQF [CDKL5_Y286_C291Y_YF] : is its phosphorylation enrichment no less than 0.7?
stdout: met

stdin: Entry IFKAAYFGVFD [SLC25A4_Y191_R188K_YF] : is its phosphorylation enrichment no less than 0.7?
stdout: not met
